Collected % activity values appear next to each entry.
test system: Helminthosporium gramineum; test: Seed treatment in open field tests for infestation by Helminthosporium gramineum (barley); type: in vivo; settings: summer barley; 50 g active agent/100 kg barley; about 3 months
quantity_name: % activity (%)

CCCCNC(=O)c1nnc([S+](C)[O-])s1 (stereo not shown): 100
CC(C)NC(=O)c1nnc(S(C)(=O)=O)s1: 100
CCNC(=O)c1nnc(S(C)(=O)=O)s1: 100
CCCNC(=O)c1nnc([S+](C)[O-])s1 (stereo not shown): 97
CCCCNC(=O)c1nnc(S(C)(=O)=O)s1: 99.3
C=CCNC(=O)c1nnc([S+](C)[O-])s1 (stereo not shown): 100
CCCCN(C)C(=O)c1nnc(S(=O)(=O)CC)s1: 96.9

====

Measured % activity of individual entries
system: Helminthosporium gramineum; assay: Seed treatment in open field tests for infestation by Helminthosporium gramineum (barley); type: in vivo; conditions: winter barley; 75 g active agent/100 kg barley; about 8 months
quantity_name: % activity (%)

CS(=O)(=O)c1nnc(C(N)=O)s1: 100
CNC(=O)c1nnc(S(C)(=O)=O)s1: 100
CC(C)S(=O)(=O)c1nnc(C#N)s1: 99
CC(C)CS(=O)(=O)c1nnc(C(N)=O)s1: 100

====

tested on: Pythium ultimum; assay: Threshold concentration test for use of the compounds against Pythium ultimum (infested soil, garden peas); type: in vivo; settings: 20 mg/l soil; 20 grains per dish; 3 weeks at 20-24° C.
Quick reference: number of sound peas of the listed items.
quantity_name: number of sound peas

CCCS(=O)(=O)c1nnc(C(=O)NCCCCl)s1: 10
CCCNC(=O)c1nnc(S(=O)(=O)CCC)s1: 10
CC(C)CS(=O)(=O)c1nnc(C(N)=O)s1: 15
CCCCNC(=O)c1nnc([S+](C)[O-])s1 (stereo not shown): 12
CC(C)[S+]([O-])c1nnc(C#N)s1 (stereo not shown): 17
CS(=O)(=O)c1nnc(C(N)=O)s1: 16
CCNC(=O)c1nnc(S(C)(=O)=O)s1: 15
CCCS(=O)(=O)c1nnc(C(N)=O)s1: 12
CS(=O)(=O)c1nnc(C(=O)N2CCC2)s1: 19
CCCS(=O)(=O)c1nnc(C(=O)NCC)s1: 14
CCCS(=O)(=O)c1nnc(C(=O)N2CCC2)s1: 6
CCS(=O)(=O)c1nnc(C(=O)NCCCOC)s1: 11
CCCCS(=O)(=O)c1nnc(C(N)=O)s1: 11
CCS(=O)(=O)c1nnc(C(=O)N2CCC2)s1: 20
CCS(=O)(=O)c1nnc(C(N)=O)s1: 18
CCCCNC(=O)c1nnc(S(C)(=O)=O)s1: 14
C[S+]([O-])c1nnc(C(=O)NC2CC2)s1 (stereo not shown): 15
CCCNC(=O)c1nnc([S+](C)[O-])s1 (stereo not shown): 14
CCCC[S+]([O-])c1nnc(C#N)s1 (stereo not shown): 18
CCS(=O)(=O)c1nnc(C(=O)NC(C)C)s1: 16
C=CCNC(=O)c1nnc(S(C)(=O)=O)s1: 19
CCS(=O)(=O)c1nnc(C#N)s1: 19
C[S+]([O-])c1nnc(C(=O)N2CCC2)s1 (stereo not shown): 12
CCNC(=O)c1nnc(S(=O)(=O)CC)s1: 15
C[S+]([O-])c1nnc(C#N)s1 (stereo not shown): 19
CC[S+]([O-])c1nnc(C(N)=O)s1 (stereo not shown): 15
CC(C)NC(=O)c1nnc(S(C)(=O)=O)s1: 15
C=CCNC(=O)c1nnc(S(=O)(=O)CCC)s1: 13
CS(=O)(=O)c1nnc(C#N)s1: 17
CC[S+]([O-])c1nnc(C#N)s1 (stereo not shown): 20
CCCS(=O)(=O)c1nnc(C(=O)NC(C)C)s1: 9
C=CCNC(=O)c1nnc(S(=O)(=O)CC)s1: 11
CCCS(=O)(=O)c1nnc(C(=O)N(C)C)s1: 17
CCCC[S+]([O-])c1nnc(C(N)=O)s1 (stereo not shown): 10
CC(C)S(=O)(=O)c1nnc(C(N)=O)s1: 17
CCS(=O)(=O)c1nnc(C(=O)NCCOC)s1: 13
CCC[S+]([O-])c1nnc(C#N)s1 (stereo not shown): 9
CS(=O)(=O)c1nnc(C(=O)NC2CC2)s1: 13
CN(C)C(=O)c1nnc(S(C)(=O)=O)s1: 18
C=CCNC(=O)c1nnc([S+]([O-])CCC)s1 (stereo not shown): 15
CC(C)NC(=O)c1nnc([S+](C)[O-])s1 (stereo not shown): 19
CCNC(=O)c1nnc([S+](C)[O-])s1 (stereo not shown): 18
S=C([S-])NCCNC(=S)[S-].[Mn+2] [reference compound]: 1
COCCCNC(=O)c1nnc(S(C)(=O)=O)s1: 9
CNC(=O)c1nnc(S(C)(=O)=O)s1: 20
CCCNC(=O)c1nnc(S(C)(=O)=O)s1: 15
CCS(=O)(=O)c1nnc(C(=O)NC)s1: 17
CCCS(=O)(=O)c1nnc(C(=O)NC)s1: 19
C=CCNC(=O)c1nnc([S+](C)[O-])s1 (stereo not shown): 20
CCS(=O)(=O)c1nnc(C(=O)N2CCCC2)s1: 14
CCCCNC(=O)c1nnc(S(=O)(=O)CC)s1: 8
CC(C)S(=O)(=O)c1nnc(C#N)s1: 18
CCS(=O)(=O)c1nnc(C(=O)N(C)C)s1: 13
CCC[S+]([O-])c1nnc(C(=O)N(C)C)s1 (stereo not shown): 12
O=C1C2CC=CCC2C(=O)N1SC(Cl)(Cl)Cl (stereo not shown) [reference compound]: 1
